- Target under test: rat MCH 1 receptor (rMCH1R) (Rattus norvegicus, UniProt P97639)
- Construct: expressed in transfected cells; host or cells: HEK 293 (membranes)
- Sequence (P97639 whole entry): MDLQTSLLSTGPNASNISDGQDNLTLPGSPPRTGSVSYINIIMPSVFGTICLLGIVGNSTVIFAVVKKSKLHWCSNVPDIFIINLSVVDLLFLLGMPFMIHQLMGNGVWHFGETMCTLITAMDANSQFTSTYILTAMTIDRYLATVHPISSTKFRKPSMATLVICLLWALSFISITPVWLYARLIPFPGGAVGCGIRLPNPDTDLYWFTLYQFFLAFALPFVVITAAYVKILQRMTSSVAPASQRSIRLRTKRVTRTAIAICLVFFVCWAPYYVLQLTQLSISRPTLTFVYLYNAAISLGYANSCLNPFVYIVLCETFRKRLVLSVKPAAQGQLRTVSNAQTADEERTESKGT
- Measurement notes: 125I-MCH ligand binding assay, rMCH
Value type: IC50

* Cc1cccc(C)c1-n1nnnc1C1(N2CCN(C/C=C/c3ccccc3)CC2)CCCCC1 | ≤ 100 µM

* * *

- Target under test: rat MCH1 receptor (Rattus norvegicus)
- Sequence (P97639 whole entry): as above
- Measurement notes: HT-PS100 calcium mobilization functional assay
- Assay type: cell-based
- Design: expressed in transfected cells
- Experimental conditions: HEK 293 cells stably transfected with rat MCH1 receptor; 100 nM or less list; read-out: Ki in the HT-PS100 assay
Value type: Ki

• Cc1cccc(C)c1-n1nnnc1[C@H](c1ccc2c(c1)OCO2)N1CCN(C/C=C/c2ccccc2)CC1 (racemic) = ≤ 100 nM
• Cc1cccc(C)c1-n1nnnc1[C@H](c1ccccc1)N1CCN(C/C=C/c2ccccc2)CC1 (racemic) [Compound 4] = ≤ 100 nM
• Cc1cccc(C)c1-n1nnnc1[C@H](c1ccc(OCc2ccccc2)cc1)N1CCN(C/C=C/c2ccccc2)CC1 (racemic) = ≤ 100 nM
• Cc1cccc(C)c1-n1nnnc1[C@H](c1cccc(OCCO)c1)N1CCN(C/C=C/c2ccccc2)CC1 (racemic) = ≤ 100 nM
• Cc1cccc(C)c1-n1nnnc1[C@H](c1cccc(F)c1)N1CCN(C/C=C/c2ccccc2)CC1 (racemic) = ≤ 100 nM
• Cc1cccc(C)c1-n1nnnc1[C@H](c1ccc(Cl)c(Cl)c1)N1CCN(C/C=C/c2ccccc2)CC1 (racemic) = ≤ 100 nM
• Cc1cccc(C)c1-n1nnnc1[C@H](c1ccc2ccccc2c1)N1CCN(C/C=C/c2ccccc2)CC1 (racemic) = ≤ 100 nM

* * *

- Target under test: rat MCH 1 receptor (rMCH1R) (Rattus norvegicus, UniProt P97639)
- Construct: expressed in transfected cells; host or cells: HEK 293 (membranes)
- Measurement notes: 125I-MCH ligand binding assay, rMCH
- Experimental conditions: HEK 293 membranes, 0.2 nM 125I native-MCH; 100 μM or less list; read-out: IC50 in the rMCH binding assay
pIC50: −log10 of the molar value.
Value type: pIC50

* CC(C)(C)OC(=O)Cn1nnnc1[C@H](c1ccccc1)N1CCN(C/C=C/c2ccccc2)CC1 (racemic) | ≥ 4.00
* CC(C)(C)n1nnnc1[C@H](c1ccccc1)N1CCN(C/C=C/c2ccccc2)CC1 (racemic) | ≥ 4.00
* CCOc1ccc([C@@H](c2nnnn2-c2c(C)cccc2C)N2CCN(C/C=C/c3ccccc3)CC2)cc1 (racemic) | ≥ 4.00
* Cc1cccc(C)c1-n1nnnc1[C@H](c1cccc(C(F)(F)F)c1)N1CCN(C/C=C/c2ccccc2)CC1 (stereo in doubt) [Compound 142] | ≥ 4.00
* Cc1cccc(C)c1-n1nnnc1[C@H](c1ccccc1C#N)N1CCN(C/C=C/c2ccccc2)CC1 (racemic) | ≥ 4.00
* C(=C\c1ccccc1)/CN1CCN([C@@H](c2ccccc2)c2nnnn2Cc2ccccc2)CC1 (racemic) | ≥ 4.00
* Cc1cccc(C)c1-n1nnnc1[C@H](c1ccc2c(c1)OCO2)N1CCN(C/C=C/c2ccccc2)CC1 (racemic) | ≥ 4.00
* Cc1cccc([C@@H](c2nnnn2-c2c(C)cccc2C)N2CCN(C/C=C/c3ccccc3)CC2)n1 (racemic) | ≥ 4.00
* Cc1cccc(C)c1-n1nnnc1[C@H](c1ccc(OCc2ccccc2)cc1)N1CCN(C/C=C/c2ccccc2)CC1 (racemic) | ≥ 4.00
* Cc1cccc(C)c1-n1nnnc1[C@H](c1ccccn1)N1CCN(C/C=C/c2ccccc2)CC1 (racemic) | ≥ 4.00
* Cc1cccc(C)c1-n1nnnc1[C@@H](c1ccc(-n2ccnc2)cc1)N1CCN(C/C=C/c2ccccc2)CC1 (stereo in doubt) | ≥ 4.00
* FC(F)(F)c1cccc([C@@H](c2nnnn2-c2c(Cl)cccc2Cl)N2CCN(C/C=C/c3ccccc3)CC2)c1 (racemic) | ≥ 4.00
* Cc1cccc(C)c1-n1nnnc1C(c1ccc(-c2ccccc2)cc1)N1CCN(C/C=C/c2ccccc2)CC1 (centres unmarked) | ≥ 4.00
* Cc1cccc([C@@H](c2nnnn2-c2c(C)cccc2C)N2CCN(C/C=C/c3ccccc3)CC2)c1 (racemic) | ≥ 4.00
